- system_name: insulin receptor A (UniProt P06213-2 28-1370, limits assumed)
- Sequence (P06213 other isoform, or with tags, fused parts or gaps limits assumed): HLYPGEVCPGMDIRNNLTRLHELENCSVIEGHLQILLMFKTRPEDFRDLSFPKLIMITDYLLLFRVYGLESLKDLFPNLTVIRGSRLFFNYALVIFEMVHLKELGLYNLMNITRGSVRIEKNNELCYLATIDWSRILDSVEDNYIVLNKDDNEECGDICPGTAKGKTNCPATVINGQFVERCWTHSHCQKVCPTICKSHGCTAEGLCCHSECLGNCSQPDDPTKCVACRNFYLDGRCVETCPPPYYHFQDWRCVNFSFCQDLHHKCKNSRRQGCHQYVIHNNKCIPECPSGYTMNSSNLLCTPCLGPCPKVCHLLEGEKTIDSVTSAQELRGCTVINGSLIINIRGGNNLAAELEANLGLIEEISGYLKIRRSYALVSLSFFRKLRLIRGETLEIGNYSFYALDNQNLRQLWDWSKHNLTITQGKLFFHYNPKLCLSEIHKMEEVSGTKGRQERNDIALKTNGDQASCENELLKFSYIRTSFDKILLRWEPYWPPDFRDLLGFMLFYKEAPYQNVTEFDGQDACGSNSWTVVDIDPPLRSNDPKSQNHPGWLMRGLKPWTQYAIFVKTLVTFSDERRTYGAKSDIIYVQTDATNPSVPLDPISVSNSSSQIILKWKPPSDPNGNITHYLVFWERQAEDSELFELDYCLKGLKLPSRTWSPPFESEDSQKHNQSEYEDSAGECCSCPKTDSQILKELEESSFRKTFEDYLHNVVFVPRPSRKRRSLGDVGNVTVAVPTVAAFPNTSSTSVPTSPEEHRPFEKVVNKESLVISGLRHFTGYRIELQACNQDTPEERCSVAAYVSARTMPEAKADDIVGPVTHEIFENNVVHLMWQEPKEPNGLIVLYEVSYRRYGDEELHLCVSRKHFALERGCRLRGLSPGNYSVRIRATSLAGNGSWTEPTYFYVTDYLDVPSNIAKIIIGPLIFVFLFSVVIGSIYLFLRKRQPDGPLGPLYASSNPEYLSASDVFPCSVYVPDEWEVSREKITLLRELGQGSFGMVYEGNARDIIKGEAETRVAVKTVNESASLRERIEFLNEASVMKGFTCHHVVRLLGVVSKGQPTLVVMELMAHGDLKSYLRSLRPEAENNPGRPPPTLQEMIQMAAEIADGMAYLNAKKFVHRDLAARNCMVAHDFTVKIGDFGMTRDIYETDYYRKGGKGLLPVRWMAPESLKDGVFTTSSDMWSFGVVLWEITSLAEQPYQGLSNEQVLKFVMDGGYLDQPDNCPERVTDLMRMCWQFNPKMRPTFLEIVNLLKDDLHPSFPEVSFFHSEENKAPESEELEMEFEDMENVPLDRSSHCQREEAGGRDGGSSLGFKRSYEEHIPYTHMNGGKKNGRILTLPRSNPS
- protocol_summary: insulin receptor binding assay as in Vienberg et al. 2011; relative to human insulin on insulin receptor A (100%)
Would you kindly list Insulin receptor affinity [IC50 relative to HI (%)] for each of these binders?
Give your result in % as a bare value.

So what does the record say about Insulin receptor affinity [IC50 relative to HI (%)] for (A14E, A21G, A22(GQAP)18, A94G, A95Q, A96A, A97K^, A98P, B29R, desB30 human insulin)/(227A, 234A, 235K, 297E, 315Q, 384Q, des447 hIgG4-Fc(228-447)) … (other, Cys229 (EU numbering) sulphur bound to an acetyl arm of the linker; A97K N(eps) acylated by the trivalent linker 4-[bis[2-[(2-acetyl)amino]ethyl]amino]-4-oxo-butanoyl, also called Ex 5.26) chain 1: GIVEQCCTSICSLEQLENYCGGQAPGQAPGQAPGQAPGQAPGQAPGQAPGQAPGQAPGQAPGQAPGQAPGQAPGQAPGQAPGQAPGQAPGQAPGQAKP chain 2: FVNQHLCGSHLVEALYLVCGERGFFYTPR chain 3: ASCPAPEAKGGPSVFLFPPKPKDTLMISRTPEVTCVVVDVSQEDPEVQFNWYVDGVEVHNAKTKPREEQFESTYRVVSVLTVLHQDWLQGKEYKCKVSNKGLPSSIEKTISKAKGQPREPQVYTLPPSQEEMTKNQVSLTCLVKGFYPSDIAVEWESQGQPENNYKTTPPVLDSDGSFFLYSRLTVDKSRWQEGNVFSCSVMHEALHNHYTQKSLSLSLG ?
3.95

GET /values?readout=Insulin receptor affinity [IC50 relative to HI (%)]&item= (A14E, A21G, A22(GQEP)19, A98K^, A99P, B25H, B29R, desB30 human insulin)/(227A, 234A, 235K, 297E, 315Q, 384Q, des447 hIgG4-Fc(228-447)) … (other, Cys229 (EU numbering) sulphur bound to an acetyl arm of the linker; A98K N(eps) acylated by the trivalent linker 4-[bis[2-[(2-acetyl)amino]ethyl]amino]-4-oxo-butanoyl, also called Ex 5.12) chain 1: GIVEQCCTSICSLEQLENYCGGQEPGQEPGQEPGQEPGQEPGQEPGQEPGQEPGQEPGQEPGQEPGQEPGQEPGQEPGQEPGQEPGQEPGQEPGQEPKP chain 2: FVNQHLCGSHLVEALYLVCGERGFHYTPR chain 3: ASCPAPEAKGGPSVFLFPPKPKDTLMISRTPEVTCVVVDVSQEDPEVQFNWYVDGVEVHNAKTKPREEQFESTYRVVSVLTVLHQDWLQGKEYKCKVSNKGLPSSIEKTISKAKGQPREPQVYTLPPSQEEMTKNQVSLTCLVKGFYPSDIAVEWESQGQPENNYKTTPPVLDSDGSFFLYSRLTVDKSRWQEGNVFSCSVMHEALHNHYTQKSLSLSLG
1.85
